// data source = ChEMBL document CHEMBL1126693

For each of the molecules below, state its inhibition.
Experiment: Percent inhibition at 100 uM against peroxidation of methyl linoleate / DMVN in TBA /methanol medium at 40 degree Centigrade
Give bare numbers, in %.

# batch size: 7; output inhibition per entry
1. CCCCCCCCCCCCn1c(=O)n(C)c(=O)c2c1n(C)c(=O)n2C
2. CCCCCCCCCCCCn1c(O)nc2[nH]c(=O)[nH]c(=O)c21
3. CCCCCCCCCCCCn1c(=O)n(C)c(=O)c2[nH]c(O)nc21
4. Cn1c(=O)[nH]c2[nH]c(=O)[nH]c2c1=O
5. CCCCCCCCn1c(=O)[nH]c(=O)c2[nH]c(O)nc21
6. CCCCCCCCCCCCCCCCn1c(O)nc2c(=O)[nH]c(=O)[nH]c21
7. CCCCCCCCCCCCn1c(O)nc2c(=O)[nH]c(=O)[nH]c21

RESULT:
1: 0.7; 2: 10; 3: 15; 4: 13; 5: 15; 6: 10; 7: 13

# batch size: 4; output inhibition per entry
1. CCCCCCCCCCCCn1c(=O)[nH]c2[nH]c(O)nc2c1=O
2. CCCCCCCCCCn1c(=O)[nH]c(=O)c2[nH]c(O)nc21
3. Oc1nc(O)c2nc(O)[nH]c2n1
4. Cn1c(=O)[nH]c(=O)c2[nH]c(O)nc21

RESULT:
25
8
7
10

* * *

Test: Reducing activity to scavenge 10 uM 1, 1-diphenylpicrylhydrazyl (DPPH)
Type: functional
QUANTITY NAME: RC10 (µM)
Answers are plain numbers, in µM.

Consider the reported RC10 for these molecules:
QUERY: Tell me the measured RC10 of "CCCCCCn1c(N)c(N)c(=O)[nH]c1=O" , please.
RESULT: 6.5

QUERY: Tell me the measured RC10 of "Cn1c(N)c(N)c(=O)[nH]c1=O" , please.
RESULT: 4.5

QUERY: Tell me the measured RC10 of "CCCCCCCCCCCCn1c(=O)[nH]c(N)c(N)c1=O" , please.
RESULT: 5.5

QUERY: Tell me the measured RC10 of "Nc1[nH]c(=O)[nH]c(=O)c1N" , please.
RESULT: 7

QUERY: Tell me the measured RC10 of "CCCCCCCCCCCCNc1nc(O)nc(O)c1N" , please.
RESULT: 6.4

QUERY: Tell me the measured RC10 of "Cn1c(=O)[nH]c(N)c(N)c1=O" , please.
RESULT: 6

# batch size: 2; output RC10 per entry
1. Cn1c(=O)c2[nH]c(=O)[nH]c2n(C)c1=O
2. Cc1c(C)c2c(c(C)c1O)CCC(C)(C(=O)O)O2 (stereo not given)

RESULT:
1. 3.5
2. 3.7

# batch size: 8; output RC10 per entry
1. Cn1c(=O)[nH]c(=O)c2[nH]c(O)nc21
2. CCCCCCCCCCCCn1c(N)c(N)c(=O)n(C)c1=O
3. Cn1c(=O)[nH]c2c(=O)[nH]c(=O)[nH]c21
4. CCCCCCCCCCCCCCCCn1c(O)nc2c(=O)[nH]c(=O)[nH]c21
5. Oc1nc(O)c2nc(O)[nH]c2n1
6. CCCCCCn1c(=O)[nH]c(=O)c2[nH]c(O)nc21
7. CCCCCCCCCCCCn1c(=O)[nH]c(=O)c2[nH]c(O)nc21
8. CCCCCCCCCCn1c(=O)[nH]c(=O)c2[nH]c(O)nc21

RESULT:
[3.5, 5, 5, 4.5, 4.5, 4.5, 3.2, 3.5]
